The following compounds are shown together with reported pIC50 values.
system: Target C; assay: Splicing RT-qPCR panel, Target C canonical junction (CJ) mRNA; type: cell-based, human; conditions: Homo sapiens, RT-qPCR panel, canonical junction mRNA; compound concentration having 50% response in CJ decrease; read-out: Target C IC50 (decrease in CJ mRNA levels)
pIC50: −log10 of the molar value.

CN(c1ccc(-c2ccc(-c3cn[nH]c3)c3cn[nH]c23)nn1)[C@@H]1C[C@H]2CC(F)(F)[C@@H](C1)N2 (stereo in doubt) :: 6.00 to 7.00

## Input What does the data say about its pIC50? Entry: c1nc2c(-c3cn[nH]c3)ccc(-c3ccc(NC4CNC4)nn3)c2s1
## Output < 5.00

## Input Same again, this time with CC1(C)CC(Oc2ccc(-c3ccc(-c4cn[nH]c4)c4ncsc34)nn2)CC(C)(C)N1
## Output < 5.00

## Input Same again, this time with c1n[nH]cc1-c1ccc(-c2ccc(N3CCCC4(CNC4)C3)nn2)c2[nH]ncc12
## Output < 5.00

###

tested on: Target C; assay: Splicing RT-qPCR panel, Target C canonical junction (CJ) mRNA; type: cell-based, human; conditions: Homo sapiens, RT-qPCR panel, canonical junction mRNA; compound concentration having 50% response in CJ decrease; read-out: Target C IC50 (decrease in CJ mRNA levels)
The following compounds are shown together with reported IC50 values.

CN(c1ncc(-c2ccc(-n3cccn3)c3[nH]ncc23)nn1)[C@@H]1C[C@H]2CCC[C@@H](C1)N2 :: < 100 nM
Cn1ncc(-c2ccc(-c3ccc(OC4CC(C)(C)NC(C)(C)C4)nn3)c3[nH]ncc23)n1 :: 1000 to 10000 nM
Fc1ccn(-c2ccc(-c3ccc(O[C@@H]4C[C@H]5CC[C@@H](C4)N5)nn3)c3scnc23)n1 :: 100 to 1000 nM
c1nc2c(-c3cn[nH]c3)ccc(-c3ccc(O[C@@H]4C[C@H]5COC[C@@H](C4)N5)nn3)c2s1 :: 100 to 1000 nM
c1nc2c(-c3cn[nH]c3)ccc(-c3cnc(N4CCN5CCCC5C4)nn3)c2s1 (stereo not shown) :: > 10000 nM

## Input What does the data say about its IC50? Entry: c1nc2c(-c3cn[nH]c3)ccc(-c3ccc(OC4CCNCC4)nn3)c2s1
## Output 100 to 1000 nM

## Input Same again, this time with Cc1cc(-c2ccc(-c3ccc(O[C@@H]4C[C@H]5CC[C@@H](C4)N5)nn3)c3scnc23)ccn1
## Output 1000 to 10000 nM

###

test system: Target C; assay: Splicing RT-qPCR panel, Target C canonical junction (CJ) mRNA; assay type: cell-based, human; conditions: Homo sapiens, RT-qPCR panel, canonical junction mRNA; compound concentration having 50% response in CJ decrease; read-out: Target C IC50 (decrease in CJ mRNA levels)
The following compounds are shown together with reported IC50 values.

## Input What does the data say about its IC50? Entry: c1nc2c(-c3cn[nH]c3)ccc(-c3ccc(NC4CCNCC4)nn3)c2s1
## Output > 10000 nM

## Input Same again, this time with c1nc2c(-c3cn[nH]c3)ccc(-c3ccc(O[C@@H]4C[C@H]5CCC[C@@H](C4)N5)nn3)c2[nH]1
## Output 100 to 1000 nM

## Input Same again, this time with FC1(F)C[C@@H]2C[C@@H](Oc3ccc(-c4ccc(-c5cn[nH]c5)c5cn[nH]c45)nn3)C[C@H]1N2 (stereo in doubt)
## Output 1000 to 10000 nM

## Input Same again, this time with c1nc2c(-c3cn[nH]c3)ccc(-c3cnc(N4CCNC(C5CC5)C4)nn3)c2s1 (stereo not drawn)
## Output 1000 to 10000 nM

## Input Same again, this time with c1nc2c(-c3cn[nH]c3)ccc(-c3ccc(N4CCC45CCNC5)nn3)c2s1 (stereo not drawn)
## Output > 10000 nM

## Input Same again, this time with Cn1cc(-c2ccc(-c3ccc(O[C@@H]4C[C@H]5CC[C@@H](C4)N5)nn3)c3[nH]ncc23)nn1
## Output 1000 to 10000 nM

## Input Same again, this time with CCN(c1ccc(-c2ccc(-c3cn[nH]c3)c3cn[nH]c23)nn1)[C@@H]1C[C@H]2CC[C@@H](C1)N2
## Output 100 to 1000 nM

## Input Same again, this time with CC1(C)CC(Oc2ccc(-c3ccc(-c4cn[nH]c4)c4ncsc34)nn2)CCN1 (stereo not drawn)
## Output 1000 to 10000 nM

## Input Same again, this time with c1cnn(-c2ccc(-c3cnc(N[C@@H]4C[C@H]5CCC[C@@H](C4)N5)nn3)c3cn[nH]c23)c1
## Output 100 to 1000 nM

## Input Same again, this time with CC1(C)CC(Nc2ccc(-c3ccc(-c4cn[nH]c4)c4ncsc34)nn2)CC(C)(C)N1
## Output 100 to 1000 nM

## Input Same again, this time with c1nc2c(-c3cn[nH]c3)ccc(-c3ccc(N4CCC5(CCCNC5)C4)nn3)c2s1 (stereo not drawn)
## Output > 10000 nM

## Input Same again, this time with c1nc2c(-c3cn[nH]c3)ccc(-c3ccc(N(C4CCNCC4)C4CC4)nn3)c2s1
## Output 1000 to 10000 nM

## Input Same again, this time with COc1cc(-c2ccc(-c3ccc(O[C@@H]4C[C@H]5CC[C@@H](C4)N5)nn3)c3scnc23)cnn1
## Output 100 to 1000 nM

## Input Same again, this time with c1nc2c(-c3cn[nH]c3)ccc(-c3ccc(N(C4CC4)C4C[C@H]5CC[C@@H](C4)N5)nn3)c2s1 (stereo partly drawn)
## Output 100 to 1000 nM

## Input Same again, this time with c1nc2c(-c3cn[nH]c3)ccc(-c3cnc(N[C@@H]4C[C@H]5CC[C@@H](C4)N5)nn3)c2s1
## Output 100 to 1000 nM
